Target: human factor Xa (Enzyme Research Laboratories, Inc.) (human, UniProt P00742 41-179; P00742 235-488, limits assumed)
Sequence (P00742 41-179 limits assumed, chain 1 of 2): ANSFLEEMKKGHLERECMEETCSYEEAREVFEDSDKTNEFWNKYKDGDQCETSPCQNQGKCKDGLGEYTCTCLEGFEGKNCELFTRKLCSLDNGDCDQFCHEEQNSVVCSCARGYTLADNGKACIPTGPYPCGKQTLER
Sequence (P00742 235-488 limits assumed, chain 2 of 2): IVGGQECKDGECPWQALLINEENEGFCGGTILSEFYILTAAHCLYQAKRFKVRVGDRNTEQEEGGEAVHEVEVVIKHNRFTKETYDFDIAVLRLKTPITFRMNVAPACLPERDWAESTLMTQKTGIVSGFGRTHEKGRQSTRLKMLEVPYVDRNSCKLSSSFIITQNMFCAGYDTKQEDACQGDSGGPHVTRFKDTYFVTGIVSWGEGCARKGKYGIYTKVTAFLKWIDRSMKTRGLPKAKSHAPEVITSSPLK
Experiment: chromogenic enzyme inhibition, IC50 corrected for substrate
readout.name: Ki (nM)
Numbers only, in nM.

> print(dat)
                                     binder  number
1  YIRLP (D-Tyr at 1; C-term NH2, also called (D)-Tyr-Ile-Arg-Leu-Pro-NH2) [y-I-R-L-P-NH2]     200

Now for a further binder.
Q: Please give the measured Ki for this binder: XIRLP (N-term Ac; N-(iBu) on Y1; C-term NH2) [Ac-(iBu)Y-I-R-L-P-NH2]
Ans: 40
